Source: patent US20140288044A1

molecules and their reported IC50
target: IKKε (Homo sapiens, UniProt Q14164); construct: His-tag (in-house Sf9 preparation) or GST-tag (purchased Invitrogen preparation); these are alternatives, not both on one protein; host or cells: Sf9 cells; experiment: In-vitro IKKε kinase assay (radiolabelled ATP, filterplate); assay type: biochemical; details: "sensitized" assay; read-out: IC50, inhibition of the kinase activity of IKKε
Sequence (Q14164 whole entry): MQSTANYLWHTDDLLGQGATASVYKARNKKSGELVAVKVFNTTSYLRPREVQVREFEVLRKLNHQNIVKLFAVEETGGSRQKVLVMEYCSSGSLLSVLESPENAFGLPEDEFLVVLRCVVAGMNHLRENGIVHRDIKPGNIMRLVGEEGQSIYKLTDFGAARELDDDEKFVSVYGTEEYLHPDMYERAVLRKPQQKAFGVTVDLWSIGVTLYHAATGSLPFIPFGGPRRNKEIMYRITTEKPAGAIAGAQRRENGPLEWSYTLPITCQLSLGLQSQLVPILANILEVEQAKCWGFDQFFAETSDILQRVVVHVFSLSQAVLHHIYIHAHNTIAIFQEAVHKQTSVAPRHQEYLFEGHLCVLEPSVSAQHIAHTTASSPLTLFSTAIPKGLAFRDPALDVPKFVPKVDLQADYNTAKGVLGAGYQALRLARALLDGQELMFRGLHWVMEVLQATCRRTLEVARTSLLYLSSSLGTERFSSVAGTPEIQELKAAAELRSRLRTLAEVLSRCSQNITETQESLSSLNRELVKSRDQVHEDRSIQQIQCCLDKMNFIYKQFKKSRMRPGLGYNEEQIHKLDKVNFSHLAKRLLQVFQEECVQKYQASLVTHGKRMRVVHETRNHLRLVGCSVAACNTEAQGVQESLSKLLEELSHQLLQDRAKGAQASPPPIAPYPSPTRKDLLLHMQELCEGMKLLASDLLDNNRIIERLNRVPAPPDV
assay_readout: IC50

- molecule: "N#Cc1cc(-c2ccnc(Nc3ccnc(N4CCOCC4)c3)n2)ccc1OC1CCOCC1 [Example Compound 44]"
  tested_target: "IKKε (Homo sapiens, UniProt Q14164)"
  recorded_result: "< 5 nM"
- molecule: "CNC(=O)c1cncc(Nc2nccc(-c3ccc(OC4CCOCC4)c(C#N)c3)n2)c1 [Example Compound 12]"
  tested_target: "IKKε (Homo sapiens, UniProt Q14164)"
  recorded_result: "< 5 nM"
- molecule: "CN(CCS(C)(=O)=O)Cc1ccc(Nc2nccc(-c3ccc(OC4CCOCC4)c(C#N)c3)n2)cn1 [Example Compound 207]"
  tested_target: "IKKε (Homo sapiens, UniProt Q14164)"
  recorded_result: "< 5 nM"
- molecule: "N#Cc1cc(-c2ccnc(Nc3ccc(C(=O)N4CCCC4)nc3)n2)ccc1OC1CCOCC1 [Example Compound 29]"
  tested_target: "IKKε (Homo sapiens, UniProt Q14164)"
  recorded_result: "< 5 nM"
- molecule: "CN(C)c1ccc(Nc2nccc(-c3ccc(NC(=O)C4CC4)c(C#N)c3)n2)cn1 [Example Compound 138]"
  tested_target: "IKKε (Homo sapiens, UniProt Q14164)"
  recorded_result: "< 5 nM"
- molecule: "COCCNc1ncc(-c2ccc(Nc3nccc(-c4ccc(OC5CCOCC5)c(C#N)c4)n3)cn2)cn1 [Example Compound 187]"
  tested_target: "IKKε (Homo sapiens, UniProt Q14164)"
  recorded_result: "< 5 nM"
- molecule: "CN(Cc1ccc(Nc2nccc(-c3ccc(OC4CCOCC4)c(C#N)c3)n2)cn1)C(=O)C1(N)CC1 [Example Compound 196]"
  tested_target: "IKKε (Homo sapiens, UniProt Q14164)"
  recorded_result: "< 5 nM"
